growth inhibition values by entry
- assay_notes: NCI Yeast Anticancer Drug Screen. Data for the mlh1 rad18 strain (AID 175)
- particulars: S. cerevisiae mlh1 rad18 strain growth inhibition; at 50.0 µM; stronger effect = higher value
The panel holds about 79,000 compounds, 15% with a hit somewhere; the sample as a whole holds those more often.
Value expressed in %; do not type the unit.

Look over these answered cases.
Cc1cc2c(c3c1c(=O)c1ccccc1n3C)C=CC(C)(C)O2    -8.9
CCN(CC)COC(=O)C(C)(C)C    -4.2
CN(C)CCCn1ncc(Sc2cc([N+](=O)[O-])ccc2N)c(Cl)c1=O    -6.9
Cc1ccc(-n2cnc3sc4c(c3c2=O)CCCC4)cc1    -16.5
CCSC(COC(C)=O)(SCC)C(OC(C)=O)C(OC(C)=O)C(COC(C)=O)OC(C)=O (stereo unspecified)    14.4

According to the records, this molecule CC(=O)Nc1ccc(S(=O)(=O)N2c3ccccc3Sc3ccccc32)cc1 displays growth inhibition of 4.2

Form field growth inhibition, entry COC(=O)C1CCCN1C(c1ccccc1)(c1ccccc1)c1ccccc1 (stereo unspecified) : -23.5

---

- assay_notes: NCI Yeast Anticancer Drug Screen. Data for the rad50 strain (AID 155);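 also: 0% = growth of vehicle-only cultures of the same strain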
- particulars: S. cerevisiae rad50 strain growth inhibition; at 50.0 µM; stronger effect = higher value
This is part of a sample that, as a whole, favours compounds with a hit. Of some 79,000 tested, about 15% had one in any assay.
reported_property: growth inhibition (%)
Field format: number, assumed %, no unit text.

CCCCc1ccc(Nc2nc(=S)c3[nH]cnc3[nH]2)cc1    26.9

growth inhibition in this record for COCC1OC(OC2(COC)OC(COC)C(OC)C2OC)C(OC)C(OC)C1OC (configuration not stated) : 22.1

Entry CC(=O)c1cc([N+](=O)[O-])c[nH]1 ; growth inhibition = 9.05

Looking up O=C(O)c1[nH]c(=O)[nH]c(=O)c1C(=O)O , I see its growth inhibition listed as -20.6

Reported growth inhibition of OC1c2ccccc2CC1Br (configuration not stated) : -4.8

---

- assay_notes: NCI Yeast Anticancer Drug Screen. Data for the mlh1 rad18 strain (AID 175)
- particulars: S. cerevisiae mlh1 rad18 strain growth inhibition; at 50.0 µM
The panel holds about 79,000 compounds, 15% with a hit somewhere; the sample as a whole holds those more often. Activity calls are given as the source filed them. Rule as the data show it: active = growth inhibition above about 70%; inactive = the rest.
Pick one and only one: active, inactive

C=C1C(=O)OC2/C=C(\C)C(=O)CC3OC(C)(C)OC3(C)CC(OC(=O)/C(C)=C/C)C12 (centres undefined)    inactive
CCOC1=C(C#N)C(=O)NC2OC(CO)C(O)C2O1 (centres undefined)    inactive
CC(=O)OCc1ccc(C)c(COC(C)=O)c1    inactive
COc1ccc(N/N=C(/c2ccccc2)c2noc(-c3ccccc3)n2)cc1    active

Request: Would you mind telling me which call this test gave Cc1cc(C)c(C#N)c(SC(C(=O)Nc2cc(C(F)(F)F)ccc2Cl)c2ccccc2)n1 (centres undefined) ?
Response: inactive

Request: Check the results log: what was the call for CC1CCCC(C)(C)/C1=N/O (centres undefined) ?
Response: inactive

Request: Dear colleague, could you share the recorded outcome for c1ccc(CCNCc2ccc(CNCCc3ccccc3)cc2)cc1 when you have a moment?
Response: inactive

---

- assay_notes: NCI Yeast Anticancer Drug Screen. Data for the sgs1 mgt1 strain (AID 161);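 also: 0% = growth of cultures given vehicle only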
- particulars: S. cerevisiae sgs1 mgt1 strain, at 50.0 µM, stronger effect = higher value
Compounds without any hit were thinned out: in the full panel of roughly 79,000, 15% have a hit.
reported_property: growth inhibition (%)
Give a bare numeral; the unit % is implied.

Answered cases to consult:
CC(=O)OC12C(C)=C(C)C(=O)N1c1ccccc1N2C(C)=O (configuration not stated)    6.7
O=c1cc(-c2ccccc2)nc(Sc2ccc([N+](=O)[O-])cc2[N+](=O)[O-])[nH]1    -11.4
Cc1cccc2nc(-c3ccccn3)n(CCc3ccncc3)c12    99.2
CCCC(=O)NC(Nc1cc(C)ccn1)(C(=O)OCC)C(F)(F)F (configuration not stated)    9.1
OCCCSc1ccccc1SCCCO    3.5
N#Cc1nc(C2CCC2)oc1N    -15.3

So, c1ccc(CC2=NCCc3ccccc32)cc1 ? Its growth inhibition was -3.3

Record CCC(CCC(C)C1CCC2C3CC=C4CC(OC(=O)Nc5ccccc5)CCC4(C)C3CCC12C)C(C)C (configuration not stated) , field growth inhibition: -15.9

Sample CNC(=O)Nc1[nH]c(=O)ncc1Cl ; growth inhibition observed: 8.95

growth inhibition reported for this molecule Nc1[nH]c(=O)ncc1[N+](=O)[O-] : 5.9

Quick note, growth inhibition for Cc1cc(-c2ccc(NC(=O)c3cccc([N+](=O)[O-])c3)c(C)c2)ccc1NC(=O)c1cccc([N+](=O)[O-])c1 landed at 0.25

Reported growth inhibition of Nc1cc2c(C3OC(CO)C(O)C3O)[nH]nc2c(=S)[nH]1 (configuration not stated) : 15.5

meta.source: PubChem BioAssay (NCI)
